viability, T/C reference
# System: 422866-222-R5-J1-PDC complex spheroid viability;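 note: spheroids exposed to compounds for one week before readout; percent of DMSO vehicle wells luminescence so 100% = untreated viability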
# METHOD DESCRIPTION: Anticancer human tumor 422866-222-R5-J1-PDC patient-derived pancreatic adenocarcinoma cell line growth inhibition [POLQ]
# CONDITION DETAILS: second compound 0.1 µM; first compound 10 µM; stronger effect = lower value

Please review the following examples before continuing.
COMPOUND | viability, T/C
CC1COCCN1c1cc(C2(O)CC3CCC(C2)O3)c2cnn(-c3ccn[nH]3)c2n1 (stereo not given) + COC1C(OC(N)=O)C(O)C(Oc2ccc3c(O)c(NC(=O)c4ccc(O)c(CC=C(C)C)c4)c(=O)oc3c2C)OC1(C)C | 66.4%
O=c1[nH]cc(F)c(=O)[nH]1 + Cc1cccc(N(C)C(=O)C2C(O)CCN2c2nc(C)cc(C(F)(F)F)c2C#N)c1 | 74.3%
Nc1ccn(C2OC(CO)C(O)C2(F)F)c(=O)n1 (stereo not given) + COC1C(OC(N)=O)C(O)C(Oc2ccc3c(O)c(NC(=O)c4ccc(O)c(CC=C(C)C)c4)c(=O)oc3c2C)OC1(C)C | 36.2%

Need viability, T/C, item CC(C)n1c(=O)n(C)c2cnc3cc(F)c(-c4ccc(OCCCN5CCCCC5)nc4)cc3c21 + Cc1cccc(N(C)C(=O)C2C(O)CCN2c2nc(C)cc(C(F)(F)F)c2C#N)c1
60.4%

Need viability, T/C, item CCc1cc2c(N3CCc4c(cc(Cn5ccnc5)cc4-c4cn(C)nc4C(F)(F)F)C3=O)cc(C)nc2c(OC)n1 + COC1C(OC(N)=O)C(O)C(Oc2ccc3c(O)c(NC(=O)c4ccc(O)c(CC=C(C)C)c4)c(=O)oc3c2C)OC1(C)C
93.7%
